Target: HLA-A*24:02
Assay: IEDB peptide-MHC binding, purified MHC/competitive/fluorescence; bounds were set here for any values at or beyond the usual limits of such assays
Conditions: source organism: Vaccinia virus Copenhagen
pIC50: −log10 of the molar value.
Readings of pIC50 for the listed sequences
recordedMetric: pIC50

1. LYQLLEAVY; 7.16
2. KTFKDESIF; 4.62
3. YFLKIKVTA; 5.42

====

Target: HLA-A*11:01
Experiment: IEDB peptide-MHC binding, purified MHC/direct/fluorescence; filed as Kd, often an IC50 or EC50 that approximates it; bounds were set here for any values at or beyond the usual limits of such assays
Settings: source organism: Giardia lamblia ATCC 50803
pKd: −log10 of the molar value.
Measured pKd accompanies every entry in the list below.
recordedMetric: pKd

1) ISYTYNDNW; ≤ 4.70
2) ITFHNQRDF; ≤ 4.70
3) GMLSSLHTL; ≤ 4.70

====

Target: HLA-A*69:01
Assay: IEDB peptide-MHC binding, purified MHC/direct/fluorescence; filed as Kd, often an IC50 or EC50 that approximates it; bounds were set here for any values at or beyond the usual limits of such assays
Settings: source organism: Salmonella enterica
pKd: −log10 of the molar value.
recordedMetric: pKd

1. ALMRWRHPR; ≤ 4.70

====

Molecular target: HLA-A*01:01
Assay: IEDB peptide-MHC binding, purified MHC/competitive/fluorescence; filed as Kd, often an IC50 or EC50 that approximates it; bounds were set here for any values at or beyond the usual limits of such assays
Settings: source organism: Pseudomonas aeruginosa UCBPP-PA14
recordedMetric: Kd

1) AVFDGCVVY; ≥ 20 µM

====

Target: HLA-A*03:01
Assay: IEDB peptide-MHC binding, purified MHC/competitive/fluorescence; filed as Kd, often an IC50 or EC50 that approximates it; bounds were set here for any values at or beyond the usual limits of such assays
Settings: source organism: Influenza A virus (A/swine/Quebec/192/81(H1N1))
pKd: −log10 of the molar value.
recordedMetric: pKd

1. RTKSISSR; ≤ 4.70

====

Target: HLA-A*03:01
Test: IEDB peptide-MHC binding, purified MHC/direct/fluorescence; filed as Kd, often an IC50 or EC50 that approximates it; bounds were set here for any values at or beyond the usual limits of such assays
Conditions: source organism: Zaire ebolavirus
pKd: −log10 of the molar value.
recordedMetric: pKd

1) TGIVSSMHY; ≤ 4.70
2) ATEDPSSGY; ≤ 4.70

====

Item-by-item account of pKd
Biological target: HLA-B*44:02
Experiment: IEDB peptide-MHC binding, purified MHC/competitive/radioactivity; filed as Kd, often an IC50 or EC50 that approximates it; bounds were set here for any values at or beyond the usual limits of such assays
Conditions: source organism: Mammarenavirus guanaritoense
pKd: −log10 of the molar value.
recordedMetric: pKd

1. GEKSRCYSL; 5.69
2. LENAQPGLL; 5.22

====

Molecular target: HLA-A*26:01
Assay: IEDB peptide-MHC binding, purified MHC/competitive/fluorescence; filed as Kd, often an IC50 or EC50 that approximates it; bounds were set here for any values at or beyond the usual limits of such assays
Conditions: source organism: Bos taurus
pKd: −log10 of the molar value.
recordedMetric: pKd

1. KLGEGFKSL; ≤ 4.70

====

Target: HLA-A*31:01
Test: IEDB peptide-MHC binding, purified MHC/competitive/radioactivity; filed as Kd, often an IC50 or EC50 that approximates it; bounds were set here for any values at or beyond the usual limits of such assays
Details: source organism: Lymphocytic choriomeningitis virus (strain Armstrong)
pKd: −log10 of the molar value.
recordedMetric: pKd

1) TFTNDSIISH; ≤ 4.19

====

Target: HLA-A*11:01
Experiment: IEDB peptide-MHC binding, purified MHC/competitive/radioactivity; filed as Kd, often an IC50 or EC50 that approximates it; bounds were set here for any values at or beyond the usual limits of such assays
Details: source organism: Dengue virus 4 Philippines/H241/1956
pKd: −log10 of the molar value.
recordedMetric: pKd

1. LSSRATWAK; 7.25

====

Target: HLA-A*02:01
Experiment: IEDB peptide-MHC binding, purified MHC/direct/fluorescence; filed as Kd, often an IC50 or EC50 that approximates it; bounds were set here for any values at or beyond the usual limits of such assays
Settings: source organism: Aracatuba virus
recordedMetric: Kd

1. LLLLISLVY; ≥ 20 µM

====

Molecular target: HLA-B*51:01
Experiment: IEDB peptide-MHC binding, purified MHC/competitive/radioactivity; filed as Kd, often an IC50 or EC50 that approximates it; bounds were set here for any values at or beyond the usual limits of such assays
Settings: source organism: Mammarenavirus lassaense
pKd: −log10 of the molar value.
recordedMetric: pKd

1) MPDCGMSVL; 5.55

====

Target: HLA-A*02:12
Assay: IEDB peptide-MHC binding, purified MHC/competitive/fluorescence; filed as Kd, often an IC50 or EC50 that approximates it; bounds were set here for any values at or beyond the usual limits of such assays
Settings: source organism: Shigella dysenteriae Sd197
pKd: −log10 of the molar value.
recordedMetric: pKd

1. SVFSRPLPL; 6.74

====

Target: HLA-A*26:02
Assay: IEDB peptide-MHC binding, purified MHC/competitive/fluorescence; filed as Kd, often an IC50 or EC50 that approximates it; bounds were set here for any values at or beyond the usual limits of such assays
Conditions: source organism: Escherichia coli str. K-12 substr. MG1655
recordedMetric: Kd (nM)

1) NLPSKPVWL; 565

====

Biological target: HLA-A*02:11
Assay: IEDB peptide-MHC binding, purified MHC/competitive/fluorescence; filed as Kd, often an IC50 or EC50 that approximates it; bounds were set here for any values at or beyond the usual limits of such assays
Conditions: source organism: Entamoeba histolytica HM-1:IMSS
pKd: −log10 of the molar value.
recordedMetric: pKd

1) LICYQIEYI; 9.10

====

Biological target: HLA-B*57:01
Experiment: IEDB peptide-MHC binding, purified MHC/direct/fluorescence; filed as Kd, often an IC50 or EC50 that approximates it; bounds were set here for any values at or beyond the usual limits of such assays
Details: source organism: Giardia lamblia ATCC 50803
Recorded measurements of Kd, one per entry
recordedMetric: Kd (nM)

1. ITFHNQRDF; 125
2. ISYTYNDNW; 64.1

====

Target: HLA-B*08:01
Test: IEDB peptide-MHC binding, purified MHC/direct/fluorescence; filed as Kd, often an IC50 or EC50 that approximates it; bounds were set here for any values at or beyond the usual limits of such assays
Details: source organism: Yersinia pestis Nepal516
pKd: −log10 of the molar value.
recordedMetric: pKd

1. YLHRDIFDI; ≤ 4.70
2. AFASLQDML; ≤ 4.70

====

# maps each entry to its Kd
Target: HLA-B*45:06
Experiment: IEDB peptide-MHC binding, purified MHC/competitive/fluorescence; filed as Kd, often an IC50 or EC50 that approximates it; bounds were set here for any values at or beyond the usual limits of such assays
Settings: source organism: Salmonella enterica subsp. enterica serovar Typhi
recordedMetric: Kd

1. AEFVFSCGI; ≥ 5 µM
2. MTMLTRWKI; ≥ 5 µM

====

Biological target: HLA-A*68:02
Experiment: IEDB peptide-MHC binding, purified MHC/competitive/radioactivity; filed as Kd, often an IC50 or EC50 that approximates it; bounds were set here for any values at or beyond the usual limits of such assays
Settings: source organism: Dengue virus 4 Thailand/0348/1991
pKd: −log10 of the molar value.
recordedMetric: pKd

1) TSNHGVTATI; 6.89

====

Molecular target: HLA-B*27:05
Test: IEDB peptide-MHC binding, purified MHC/direct/fluorescence; filed as Kd, often an IC50 or EC50 that approximates it; bounds were set here for any values at or beyond the usual limits of such assays
Details: source organism: Stutzerimonas stutzeri
recordedMetric: Kd (nM)

1. GRGQILLGK; 321

====

Molecular target: HLA-A*02:01
Assay: IEDB peptide-MHC binding, purified MHC/competitive/radioactivity; filed as Kd, often an IC50 or EC50 that approximates it; bounds were set here for any values at or beyond the usual limits of such assays
Conditions: source organism: Homo sapiens
pKd: −log10 of the molar value.
recordedMetric: pKd

1. LLHQSSDKFV; 6.09
2. SLFEGIDFYT; 8.96
3. WITQCFLPV; 6.76
4. KLTKDFSAL; 6.26
5. SLADEAEVHL; 7.54

====

Recorded Kd for the following sequences
Target: HLA-A*01:01
Experiment: IEDB peptide-MHC binding, purified MHC/competitive/radioactivity; filed as Kd, often an IC50 or EC50 that approximates it; bounds were set here for any values at or beyond the usual limits of such assays
Conditions: source organism: Dengue virus 4 Philippines/H241/1956
recordedMetric: Kd

1. STANIFRGSY; 1.14 µM
2. LSEKEENMV; 6.47 µM
3. ETNMITLLV; 0.209 µM
4. ALITVSGLY; 8.11 µM
